Biological target: T1, human BMP-11 (GDF-11; R&D Systems) (human, UniProt O95390 299-407)
T1 sequence (looked up): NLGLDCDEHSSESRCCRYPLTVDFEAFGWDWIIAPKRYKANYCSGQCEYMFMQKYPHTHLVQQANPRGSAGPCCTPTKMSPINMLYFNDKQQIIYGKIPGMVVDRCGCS
Assay: SPR format A, 25C
The reader will find reported Kd values listed item by item below.

- Binder: "2524_C11 (designed binder) MGVSDVPRDLEVVAATPTSLLISWTLPHAGLAHYYRITYGETGGNSPVQEFTVPGRGVTATISGLKPGVDYTITVYAVTLTNSEIILYKPISINYRTEIDKPSQHHHHHH"
  Kd [nM]: 0.67
- Binder: "2987_H07 (designed binder) MGVSDVPRDLEVVAATPTSLLISWTLPHAGRAHYYRITYGETGGNSPVQEFTVPGRGVTATISGLKPGVDYTITVYAVTVTTTKVIHYKPISINYRTEIDKPSQHHHHHH"
  Kd [nM]: 2.25
- Binder: "ATI-1379 [40K 2-branch PEG] (designed binder, 40K 2-branch PEG on the Cys of the EGSGC tail) MGVSDVPRDLEVVAATPTSLLISWSLPHQGKANYYRITYGETGGNSPVQEFTVPGRGVTATISGLKPGVDYTITVYAVTVTDTGYLKYKPISINYRTEGSGCHHHHHH"
  Kd [nM]: 21.6
- Binder: "2523_G06 (designed binder) MGVSDVPRDLEVVAATPTSLLISWWAPLGLARYYRITYGETGGNSPVQEFTVPGRGSTATISGLKPGVDYTITVYAVTIFRTGMVQYDPISINYRTEIDKPSQHHHHHH"
  Kd [nM]: 10.7

Where these numbers come from: patent US20170088602A1
